# protocol_details: Pharmacokinetic analysis, two-compartment model (PKSolver)
# Type: in vivo, ICR mice
# measurement_conditions: mouse; oral 200 mg/kg anxiolytic fraction, ICR mice plasma, two-compartment model
readout_name: AUC(0-inf) (µg·h/mL)
Use µg·h/mL as the unit, but write only the number.

compound: O=C(O)Cc1ccc(O)cc1 [p-HPAA, para-hydroxyphenylacetic acid]
unit_of_measure: µg·h/mL
AUC(0-inf): 183
//
compound: O=C(O)Cc1cccc(O)c1 [m-HPAA, meta-hydroxyphenylacetic acid]
unit_of_measure: µg·h/mL
AUC(0-inf): 124

Lab note: next compound to report on.
Query block: Which measured AUC(0-inf) value corresponds to O=C(O)Cc1ccc(O)c(O)c1 [DOPAC, 3,4-dihydroxyphenylacetic acid] ?
Result block: 3850

----------
# protocol_details: Stability of flavonoids and biotransformation products in mouse plasma under different handling conditions
# Format: in vitro ADME, mice
# measurement_conditions: storage stability; medium nominal conc.
readout_name: Accuracy Bias Autosampler (4 °C; 8 h) (%)
Give the number; % is assumed, so skip it.

Query block: If you can, please state the reported Accuracy Bias Autosampler (4 °C; 8 h) value of O=C(O)Cc1ccc(O)cc1 [p-HPAA, para-hydroxyphenylacetic acid] .
Result block: 2.05

Query block: Repeat for the following molecule: O=c1c(O[C@@H]2O[C@H](CO)[C@@H](O)[C@H](O)[C@H]2O)c(-c2ccc(O)c(O)c2)oc2cc(O)cc(O)c12 [Quercetin glucoside, quercetin glucoside]
Result block: 5.48

Query block: Could you do the same for `C[C@@H]1O[C@@H](Oc2c(-c3ccc(O)c(O)c3)oc3cc(O)cc(O)c3c2=O)[C@H](O)[C@H](O)[C@H]1O` , please?
Result block: −2.73

----------
The following compounds are shown together with reported Observed Conc. 24 h values.
# protocol_details: Stability of flavonoids and biotransformation products in mouse plasma under different handling conditions
# Type: in vitro ADME, mice
# measurement_conditions: room temperature (25 °C), 24 h; high nominal conc. (7.00; 44.37; 4.50; 31.25 µg/mL); n = 6
State the result as a value with its unit after it.

compound: O=C(O)Cc1ccc(O)cc1 [p-HPAA, para-hydroxyphenylacetic acid]
readout_value: 31.64 ± 0.31 µg/mL

Query block: Fill in the blank: the reported Observed Conc. 24 h of O=c1c(O[C@@H]2O[C@H](CO)[C@@H](O)[C@H](O)[C@H]2O)c(-c2ccc(O)c(O)c2)oc2cc(O)cc(O)c12 [Quercetin glucoside, quercetin glucoside] is ____.
Result block: 41.37 ± 1.17 µg/mL

Query block: Repeat with `C[C@@H]1O[C@@H](OC[C@H]2O[C@@H](Oc3c(-c4ccc(O)c(O)c4)oc4cc(O)cc(O)c4c3=O)[C@H](O)[C@@H](O)[C@@H]2O)[C@H](O)[C@H](O)[C@H]1O`
Result block: 7.13 ± 0.24 µg/mL

Query block: What would you report for O=C(O)Cc1ccc(O)c(O)c1 [DOPAC, 3,4-dihydroxyphenylacetic acid] ?
Result block: 31.53 ± 0.19 µg/mL

Query block: Consider next the compound `C[C@@H]1O[C@@H](Oc2c(-c3ccc(O)c(O)c3)oc3cc(O)cc(O)c3c2=O)[C@H](O)[C@H](O)[C@H]1O` in the same way.
Result block: 43.90 ± 1.61 µg/mL

Query block: How about this compound: O=C(O)Cc1cccc(O)c1 [m-HPAA, meta-hydroxyphenylacetic acid]
Result block: 31.34 ± 0.07 µg/mL

Query block: Also check O=C(/C=C/c1ccc(O)cc1)OC[C@H]1O[C@@H](Oc2c(-c3ccc(O)cc3)oc3cc(O)cc(O)c3c2=O)[C@H](O)[C@@H](O)[C@@H]1O [Tiliroside, tiliroside]
Result block: 41.25 ± 2.04 µg/mL

----------
# protocol_details: Stability of flavonoids and biotransformation products in mouse plasma under different handling conditions
# Format: in vitro ADME, mice
# measurement_conditions: storage stability; medium nominal conc. (3.50; 22.18; 2.24; 7.81 µg/mL); n = 6
Overview of recorded Observed Conc. Autosampler (4 °C; 8 h) for various compounds
Your answer should be a plain number; it is taken to be in µg/mL.

Query block: Query (compound): `O=c1c(O)c(-c2ccc(O)cc2)oc2cc(O)cc(O)c12` ; field requested: Observed Conc. Autosampler (4 °C; 8 h)
Result block: 2.24

Query block: O=C(O)Cc1cccc(O)c1 [m-HPAA, meta-hydroxyphenylacetic acid] , same question.
Result block: 7.82

Query block: Another compound to check: O=C(/C=C/c1ccc(O)cc1)OC[C@H]1O[C@@H](Oc2c(-c3ccc(O)cc3)oc3cc(O)cc(O)c3c2=O)[C@H](O)[C@@H](O)[C@@H]1O [Tiliroside, tiliroside]
Result block: 22.94

Query block: `C[C@@H]1O[C@@H](Oc2c(-c3ccc(O)c(O)c3)oc3cc(O)cc(O)c3c2=O)[C@H](O)[C@H](O)[C@H]1O` ?
Result block: 22.79

Query block: Follow-up item: O=c1c(O[C@@H]2O[C@H](CO)[C@@H](O)[C@H](O)[C@H]2O)c(-c2ccc(O)c(O)c2)oc2cc(O)cc(O)c12 [Quercetin glucoside, quercetin glucoside]
Result block: 20.96

Query block: Proceed to O=C(O)Cc1ccc(O)cc1 [p-HPAA, para-hydroxyphenylacetic acid]
Result block: 7.89

Query block: Try O=C(O)Cc1ccc(O)c(O)c1 [DOPAC, 3,4-dihydroxyphenylacetic acid] next.
Result block: 7.78

----------
# protocol_details: Stability of flavonoids and biotransformation products in mouse plasma under different handling conditions
# Assay type: in vitro ADME, mice
# measurement_conditions: storage stability; medium nominal conc. (3.50; 22.18; 2.24; 7.81 µg/mL); n = 6
readout_name: Observed Conc. Long-term (−70 °C; 1 month) (µg/mL)
Numeric answer only, unit µg/mL assumed.

Examples with their reported Observed Conc. Long-term (−70 °C; 1 month) follow.
compound: O=C(O)Cc1ccc(O)c(O)c1 [DOPAC, 3,4-dihydroxyphenylacetic acid]
readout_value: 7.85

compound: O=c1c(O)c(-c2ccc(O)cc2)oc2cc(O)cc(O)c12 [Kaempferol, kaempferol]
readout_value: 2.15

compound: O=C(/C=C/c1ccc(O)cc1)OC[C@H]1O[C@@H](Oc2c(-c3ccc(O)cc3)oc3cc(O)cc(O)c3c2=O)[C@H](O)[C@@H](O)[C@@H]1O [Tiliroside, tiliroside]
readout_value: 21.41

compound: O=C(O)Cc1cccc(O)c1 [m-HPAA, meta-hydroxyphenylacetic acid]
readout_value: 7.80

compound: O=C(O)Cc1ccc(O)cc1 [p-HPAA, para-hydroxyphenylacetic acid]
readout_value: 7.97

compound: O=c1c(O[C@@H]2O[C@H](CO)[C@@H](O)[C@H](O)[C@H]2O)c(-c2ccc(O)c(O)c2)oc2cc(O)cc(O)c12 [Quercetin glucoside, quercetin glucoside]
readout_value: 20.57

Query block: Need Observed Conc. Long-term (−70 °C; 1 month) of C[C@@H]1O[C@@H](Oc2c(-c3ccc(O)c(O)c3)oc3cc(O)cc(O)c3c2=O)[C@H](O)[C@H](O)[C@H]1O [Quercitrin, quercitrin] , thanks.
Result block: 22.49

----------
# protocol_details: Stability of flavonoids and biotransformation products in mouse plasma under different handling conditions
# Format: in vitro ADME, mice
# measurement_conditions: storage stability; high nominal conc.
Recorded Accuracy Bias Autosampler (4 °C; 8 h) for the following compounds
Report as a plain number; the unit % is understood.

Observe how each entry below is paired with its result.
compound: O=C(O)Cc1ccc(O)cc1 [p-HPAA, para-hydroxyphenylacetic acid]
Accuracy Bias Autosampler (4 °C; 8 h) (%): 1.40
--
compound: O=C(/C=C/c1ccc(O)cc1)OC[C@H]1O[C@@H](Oc2c(-c3ccc(O)cc3)oc3cc(O)cc(O)c3c2=O)[C@H](O)[C@@H](O)[C@@H]1O [Tiliroside, tiliroside]
Accuracy Bias Autosampler (4 °C; 8 h) (%): 3.66
--
compound: C[C@@H]1O[C@@H](OC[C@H]2O[C@@H](Oc3c(-c4ccc(O)c(O)c4)oc4cc(O)cc(O)c4c3=O)[C@H](O)[C@@H](O)[C@@H]2O)[C@H](O)[C@H](O)[C@H]1O
Accuracy Bias Autosampler (4 °C; 8 h) (%): −1.17

Query block: Which Accuracy Bias Autosampler (4 °C; 8 h) value is on record for O=c1c(O[C@@H]2O[C@H](CO)[C@@H](O)[C@H](O)[C@H]2O)c(-c2ccc(O)c(O)c2)oc2cc(O)cc(O)c12 [Quercetin glucoside, quercetin glucoside] ?
Result block: −1.82

Query block: What about `O=c1c(O)c(-c2ccc(O)cc2)oc2cc(O)cc(O)c12` ?
Result block: 1.24

Query block: // query: `C[C@@H]1O[C@@H](Oc2c(-c3ccc(O)c(O)c3)oc3cc(O)cc(O)c3c2=O)[C@H](O)[C@H](O)[C@H]1O`
Result block: −0.17

Query block: Then what about the compound O=C(O)Cc1ccc(O)c(O)c1 [DOPAC, 3,4-dihydroxyphenylacetic acid] ?
Result block: 2.23

Query block: Also need O=C(O)Cc1cccc(O)c1 [m-HPAA, meta-hydroxyphenylacetic acid] , thanks.
Result block: 2.73

Origin of measurements: paper PMC6152131
